Attribution: patent US20120165304A1

target: human 5-HT2C receptor (Homo sapiens, UniProt P28335, I156V/I160V/N158S); test: cell-based
Sequence (P28335 33-458 I156V/N158S/I160V limits assumed): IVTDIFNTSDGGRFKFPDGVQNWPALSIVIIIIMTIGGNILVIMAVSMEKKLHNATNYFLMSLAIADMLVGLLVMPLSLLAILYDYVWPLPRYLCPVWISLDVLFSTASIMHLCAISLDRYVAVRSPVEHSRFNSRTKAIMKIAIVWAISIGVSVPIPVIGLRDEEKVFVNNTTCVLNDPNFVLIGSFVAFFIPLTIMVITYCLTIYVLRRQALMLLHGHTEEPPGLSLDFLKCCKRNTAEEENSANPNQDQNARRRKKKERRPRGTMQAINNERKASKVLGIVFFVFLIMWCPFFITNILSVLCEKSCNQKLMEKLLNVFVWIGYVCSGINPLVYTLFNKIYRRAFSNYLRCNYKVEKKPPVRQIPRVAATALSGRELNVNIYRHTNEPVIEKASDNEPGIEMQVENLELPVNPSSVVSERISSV
So I've got a bunch of compounds here, and I need their EC50 values.
Expressed in nM, but write only the number.

Problem: Any idea what EC50 was measured for CC(C)NC1CCN(C(=O)C2CN(c3c4c(nc5ccnn35)CCNCC4)C2)CC1 [Example 37.21] ?
Solution: 2

Problem: Quick one: CC(C)CCNC(=O)C1CN(c2c3c(nc4ccnn24)CCNCC3)C1 [Example 37.82]
Solution: 33

Problem: Would you kindly repeat that for CC1CNCCc2c1nc1ccnn1c2N1CCC1 (centres unmarked) [Example 3.1] ?
Solution: 3

Problem: # repeat for COc1ccc(C2(CNC(=O)C3CN(c4c5c(nc6ccnn46)CCNCC5)C3)CCCCC2)cc1 [Example 31.185]
Solution: 1470

Problem: Same read-out for CC(=O)NC1CCN(C(=O)C2CN(c3c4c(nc5ccnn35)CCNCC4)C2)CC1 [Example 37.29] ?
Solution: 10

Problem: Cool, now c1ccc(O[C@H]2CCN(c3c4c(nc5ccnn35)CCNCC4)C2)cc1 [Example 1.46]
Solution: 582

Problem: Then this compound: CCN1CCN(C(=O)C2CN(c3c4c(nc5ccnn35)CCN(C)CC4)C2)CC1 [Example 36.1]
Solution: 69

Problem: Then CC(=O)N1CCN(C(=O)C2CN(c3c4c(nc5ccnn35)CCNCC4)C2)CC1 [Example 37.36] ?
Solution: 10

====

molecular target: human 5-HT2C receptor (Homo sapiens, UniProt P28335, I156V/I160V/N158S); assay: cell-based
Entries are sorted into classes by EC50 as follows: bucket A: < 10 nM; bucket B: ≥ 10 nM and < 80 nM; bucket C: ≥ 80 nM

Problem: Determine which band this compound sits in: c1ccc(OC2CN(c3c4c(nc5ccnn35)CCNCC4)C2)cc1 [Example 1.3]
Solution: bucket B

Problem: Param item: CN(Cc1cccc(Cl)c1)C(=O)C1CN(c2c3c(nc4ccnn24)CCNCC3)C1 [Example 31.39]
Solution: bucket B

Problem: What do we get for C#CC1(NC(=O)C2CN(c3c4c(nc5ccnn35)CCNCC4)C2)CCCCC1 [Example 37.79] ?
Solution: bucket B

Problem: Moving on to the next compound: O=C(C1CN(c2c3c(nc4ccnn24)CCNCC3)C1)N1CCC(N2CCCC2)CC1 [Example 37.5]
Solution: bucket A

Problem: Consider next the compound COC[C@H]1CCN1c1c2c(nc3ccnn13)CCNCC2 [Example 8.1] in the same way.
Solution: bucket B

Problem: Queued: O=C(C1CN(c2c3c(nc4ccnn24)CCNCC3)C1)N1CCN(CC2CC2)CC1 [Example 37.17]
Solution: bucket A

Problem: Same lookup for CC1CC(C)CN(C(=O)C2CN(c3c4c(nc5ccnn35)CCNCC4)C2)C1 (centres unmarked) [Example 31.22] , please.
Solution: bucket C

Problem: Next: CC(C)CN(Cc1ccc(F)cc1)C(=O)C1CN(c2c3c(nc4ccnn24)CCNCC3)C1 [Example 31.198]
Solution: bucket C

Problem: Repeat with O=C(C1CN(c2c3c(nc4ccnn24)CCNCC3)C1)N1CCCC1c1ccccc1 (centres unmarked) [Example 31.45]
Solution: bucket C

Problem: Consider next the compound CN1CCc2nc3ccnn3c(N3CC(C(=O)N4CCC(F)CC4)C3)c2CC1 [Example 36.29] in the same way.
Solution: bucket C

Problem: Follow-up item: CC1CCN(C(=O)C2CN(c3c4c(nc5ccnn35)CCN(C)CC4)C2)C1 (centres unmarked) [Example 36.42]
Solution: bucket C

Problem: Next compound up: COc1ccccc1CN(C)C(=O)C1CN(c2c3c(nc4ccnn24)CCNCC3)C1 [Example 31.51]
Solution: bucket C

Problem: And CN1CCc2nc3ccnn3c(N3CC(C(=O)N4CCC5(CC5)C4)C3)c2CC1 [Example 36.37] ?
Solution: bucket B

Problem: # repeat for Fc1cccc(Cl)c1OCC1CN(c2c3c(nc4ccnn24)CCNCC3)C1 [Example 15.14]
Solution: bucket A

Problem: Also CCCCN1CCN(C(=O)C2CN(c3c4c(nc5ccnn35)CCNCC4)C2)CC1=O [Example 37.51] ?
Solution: bucket B
